Form field: logD (one value per entry).
- methodSummary: Lipophilicity, logD of compound at pH 7.4
- Type: physicochemical
- conditionDetails: buffer
Would you mind answering with just the numeric figure?

Example molecules with recorded logD:
structure | logD
C[C@@H](OC(=O)Nc1c(-c2ccc(N)cc2)nnn1C)c1ccccc1Cl | 2.3
Cc1nc(-c2nnn(C)c2NC(=O)O[C@H](C)c2cccnc2F)ccc1NS(C)(=O)=O | 1.4
C[C@@H](OC(=O)Nc1c(-c2ccc(NC(=O)C3(C#N)CC3)cn2)nnn1C)c1cc(F)cnc1F | 1.9
C[C@@H](OC(=O)Nc1c(-c2ccc(NC(=O)c3ccnc(C(F)(F)F)c3)cn2)nnn1C)c1cc(F)cnc1F | 2.7
Cn1nnc(-c2ccc(NS(C)(=O)=O)cn2)c1NC(=O)O[C@H](CF)c1ccccc1 | 1.6

Exam item: Given the entry C[C@@H](OC(=O)Nc1c(-c2ccc(NS(C)(=O)=O)cn2)nnn1C)c1cccnc1F , report its measured logD.
Marked response: 1.1

Exam item: Given the entry C[C@@H](OC(=O)Nc1c(-c2ccc(NS(=O)(=O)CC#N)cc2)nnn1C)c1ccccc1Cl , report its measured logD.
Marked response: 2.2

Exam item: Given the entry C[C@@H](OC(=O)Nc1c(-c2ccc(NC(=O)C(F)(F)F)cc2)nnn1C)c1ccccc1Cl , report its measured logD.
Marked response: 3.3

Exam item: Given the entry C[C@@H](OC(=O)Nc1c(-c2ccccc2)nnn1C)c1ccccc1Cl , report its measured logD.
Marked response: 3.2
